// reported percent second protein-compound adduct for each item listed
target: YAP1-TEAD4 (Homo sapiens) (UniProt P46937+Q15561); test: Covalent inhibition of GST-tagged TEAD4 (217 to 434 residues) (unknown origin) expressed in Escherichia coli BL21 (DE3) cells/FAM-labelled YAP1 (60 to 99 residues)(unknown origin) protein-protein interaction assessed as second protein-compound adduct formation at 100 uM incubated for 24 hrs at 4 degree C followed by mass spectrometry analysis
Enter your answer as a number in %; do not include the unit.

# count of solved cases: 3
// percent second protein-compound adduct lookup, key: CCS(=O)(=O)Oc1ccc(CN(Cc2ccc(F)cc2)C(=O)CCl)cc1
11

Could you share which percent second protein-compound adduct value was measured for O=C(CCl)N1N=C(c2cccs2)CC1c1cccs1 (configuration not stated) ?
9

Fill blank: measured percent second protein-compound adduct of the molecule COc1cccc(C2CC(Cc3cccs3)=NN2C(=O)CCl)c1OC (configuration not stated) is ____.
15

---
What percent second protein-compound adduct value was documented for this molecule, O=C(CCl)N1N=C(c2ccc(Cl)cc2)CC1c1ccco1 (configuration not stated) ?
18

percent second protein-compound adduct lookup needed for O=C(CCl)N1N=C2/C(=C/c3ccco3)CCCC2C1c1ccco1 (configuration not stated) , thanks.
10

Fill blank: measured percent second protein-compound adduct of the molecule Cc1ccc(C2=NN(C(=O)CCl)C(c3ccco3)C2)cc1 (configuration not stated) is ____.
15

# query: percent second protein-compound adduct of entry Cc1ccc2c(c1)c1c3n2CCN(C(=O)CCl)C3CCC1 (configuration not stated)
30

Data credit: ChEMBL document CHEMBL5329172
